tgt: BuChE from equine serum (Equus caballus, UniProt P81908)
Construct: BuChE from equine serum (C4290-1KU; Sigma); purchased Sigma C4290-1KU; host or cells: equine serum
Sequence (P81908 whole entry): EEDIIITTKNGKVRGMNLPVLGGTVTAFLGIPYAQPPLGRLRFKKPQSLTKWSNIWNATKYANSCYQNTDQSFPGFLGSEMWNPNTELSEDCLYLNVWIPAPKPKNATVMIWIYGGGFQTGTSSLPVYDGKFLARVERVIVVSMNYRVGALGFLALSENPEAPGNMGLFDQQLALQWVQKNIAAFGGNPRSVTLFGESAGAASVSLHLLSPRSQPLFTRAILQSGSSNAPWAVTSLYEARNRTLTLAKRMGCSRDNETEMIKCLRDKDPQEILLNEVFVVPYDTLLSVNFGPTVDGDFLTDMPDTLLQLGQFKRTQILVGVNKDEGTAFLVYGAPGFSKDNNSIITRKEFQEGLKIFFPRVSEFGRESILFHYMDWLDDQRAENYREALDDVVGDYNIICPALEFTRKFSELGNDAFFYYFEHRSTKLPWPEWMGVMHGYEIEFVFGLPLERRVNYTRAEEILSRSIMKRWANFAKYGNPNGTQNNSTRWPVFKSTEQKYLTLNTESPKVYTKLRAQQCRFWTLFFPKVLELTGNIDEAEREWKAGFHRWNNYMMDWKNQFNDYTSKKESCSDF
method-notes: eqBuChE inhibition assay (Ellman's method)
Assay type: biochemical
test-context: read-out: BuChE % inhibition at 20 µM; BuChE from horse serum; 20 µM
Decision: inhibition at 20 µM compared against 30%; not below it gives T, below it gives F.

> print(dat)
                           compound  assigned.label
1  O=S(=O)(F)C(Br)=CC=Cc1ccc(Cl)nc1               T

Inquiry: Could you tell me if the measured inhibition at 20 µM of `O=S(=O)(F)/C(C#Cc1ccsc1)=C/C=C/c1ccccc1` reaches 30% or more?
Reply text: T

Inquiry: Continue with `O=S(=O)(F)/C(C#Cc1ccccc1)=C/C=C/c1ccccc1`
Reply text: F

Inquiry: // next record `O=S(=O)(F)/C(C#Cc1ccccc1F)=C/C=C/c1ccccc1`
Reply text: T

Inquiry: Record: CSc1ccc(/C(=C\C=C\c2ccccc2)S(=O)(=O)F)cc1 [Compound D2]
Reply text: F

Inquiry: Next entry: `Cc1ccc(S(=O)(=O)n2cc(C=CC=C(Br)S(=O)(=O)F)c3ccccc32)cc1`
Reply text: T

Inquiry: What about this compound? `COc1ccc(/C(=C\C=C\c2ccccc2)S(=O)(=O)F)cc1`
Reply text: T

Inquiry: Thanks! And `O=S(=O)(F)/C(C#Cc1ccc(Br)cc1)=C/C=C/c1ccccc1` ?
Reply text: F

---

method-notes: in vitro
test-context: PAMPA, pH 7.4, Pe×10^-6cm/s Exp. value
quantity: Papp (×10⁻⁶ cm/s)
All answers are understood in ×10⁻⁶ cm/s, so give the number only.

Inquiry: For the compound shown here, Clc1cccc(Cl)c1N=C1NCCN1 [Clonidine, reference compound] , give the reported Papp.
Reply text: 7.85

---

tgt: BuChE from equine serum (Equus caballus, UniProt P81908)
Construct: BuChE from equine serum (C4290-1KU; Sigma)
method-notes: eqBuChE inhibition assay (Ellman's method)
test-context: BuChE from horse serum; mean ± SEM
quantity: pIC50
Reminder that pIC50 means the negative base-10 logarithm of the concentration expressed in mol/L.

Inquiry: # query: pIC50 of entry Cc1ccccc1C=CC=C(Br)S(=O)(=O)F [Compound A9]
Reply text: 6.52

Inquiry: Would you kindly repeat that for O=[N+]([O-])c1ccccc1C=CC=C(Br)S(=O)(=O)F [Compound A11] ?
Reply text: 6.57

Inquiry: And then COc1ccccc1/C=C/C=C(\I)S(=O)(=O)F [Compound C5] , what is it?
Reply text: 6.72

Inquiry: Cool, now COc1ccc(/C=C/C=C(\Cl)S(=O)(=O)F)cc1 [Compound B4]
Reply text: 6.27

Inquiry: Same question, O=S(=O)(F)C(Br)=CC=Cc1ccc2ccccc2c1 [Compound A12] this time
Reply text: 5.54

Inquiry: Another compound to look at: O=S(=O)(F)C(Br)=CC=Cc1ccccc1Br [Compound A8]
Reply text: 6.36

Inquiry: Again, but for O=S(=O)(F)C(Br)=CC=Cc1cccc(C(F)(F)F)c1 [Compound A17]
Reply text: 6.37

Inquiry: Then what about the compound O=S(=O)(F)C(Br)=CC=Cc1cccc(Cl)c1 [Compound A14] ?
Reply text: 6.96

Inquiry: Likewise for COc1ccc(C=CC=C(Br)S(=O)(=O)F)cc1 [Compound A6] ?
Reply text: 6.51

Inquiry: Also, O=S(=O)(F)/C(I)=C/C=C/c1cccc(C(F)(F)F)c1 [Compound C6] please.
Reply text: 6.30
